These measurements were taken from ChEMBL document CHEMBL1201862.

- Test system: MOLT-4
- protocol.notes: NCI tumour cell line growth inhibition, 48 h
The source made the active and inactive calls. Rule as the data show it: active = GI50 up to about 1.1 µM and inactive = higher.
test.readout: GI50

Answered cases to consult:
Ask: Let me know recorded GI50 for `O=[N+]([O-])c1ccc(Cl)c(/C=N/C23CC4CC(CC(C4)C2)C3)c1` , thanks.
Reply: 5.18 µM (inactive)

Ask: Let me know recorded GI50 for `[O-][Cl+3]([O-])([O-])O.c1ccc(C2=NN2c2ccccc2)cc1` , thanks.
Reply: 3.73 µM (inactive)

Ask: Let me know recorded GI50 for `N#C/C(=C/NC(=S)NCc1ccccc1)C(N)=O` , thanks.
Reply: > 100 µM (inactive)

Ask: Let me know recorded GI50 for `CCOC(=O)/C=C\C(C#N)(C#N)/N=C/c1ccsc1` , thanks.
Reply: 1.21 µM (inactive)

Ask: Let me know recorded GI50 for CC(C)(C)OC(=O)CCC1NC(=O)[C@@H]2Cc3c([nH]c4ccccc34)C(c3ccccc3)N2C1=O (some centres not stated) , thanks.
Reply: > 100 µM (inactive)

Further cases:
Ask: Let me know recorded GI50 for `O=C1OC(c2ccccc2)=N/C1=C\c1ccc(F)cc1` , thanks.
Reply: 50.6 µM (inactive)

Ask: Let me know recorded GI50 for `O=C(c1ccccc1)n1[nH]c(=O)n(-c2ccc(Cl)cc2)c1=O` , thanks.
Reply: > 100 µM (inactive)

###

- System: LOX IMVI
- protocol.notes: NCI tumour cell line growth inhibition, 48 h
Calls of active or inactive are those of the source. Cut-off read from the data, not from the text of the source: active = GI50 up to about 1.1 µM and inactive = higher.
Measured GI50, listed per entry.

Ask: // fetch GI50; item: C=C(Cl)C(Cl)(CBr)CCC(Cl)C(C)C (stereo unspecified) ; system: LOX IMVI
Reply: 11.6 µM (inactive)

Ask: // fetch GI50; item: `O=C(/C=C/c1ccccc1)CCC1C(=O)NC(=S)NC1=O` ; system: LOX IMVI
Reply: > 100 µM (inactive)

Ask: // fetch GI50; item: `O=C(NNCc1ccco1)c1cc2ccccc2[nH]1` ; system: LOX IMVI
Reply: > 100 µM (inactive)

Ask: // fetch GI50; item: `N#CI1OC(C(F)(F)F)(C(F)(F)F)c2ccccc21` ; system: LOX IMVI
Reply: 18.8 µM (inactive)

Ask: // fetch GI50; item: `Cc1cnc2nc(-c3ccc(F)cc3)cc(O)c2c1` ; system: LOX IMVI
Reply: 40.4 µM (inactive)

Further cases:
Ask: // fetch GI50; item: COC(=O)C1=CC2C=CC(C1C(=O)OC)C1C(C(=O)OC)=C(C(=O)OC)C(C(=O)OC)=C(C(=O)OC)C21OC (stereo unspecified) ; system: LOX IMVI
Reply: > 100 µM (inactive)

###

- Test system: NCI-H460
- protocol.notes: NCI tumour cell line growth inhibition, 48 h
Activity calls are given as the source filed them. Cut-off read from the data, not from the text of the source: active = GI50 up to about 1.1 µM and inactive = higher.
Could you please pick one outcome from this set? active, inactive

See these solved cases before continuing.
Ask: What is the recorded call for this molecule in the test? `CCOC(=O)C(=O)Nc1ccccc1C(C)C`
Reply: inactive

Ask: What is the recorded call for this molecule in the test? `COc1ccc2cccc(C(=O)c3ccc(C)c4c3CCC4)c2c1`
Reply: inactive

Ask: What is the recorded call for this molecule in the test? COC(=O)N1C=CC2=C(C)C3Nc4ccccc4C3C(C)=C2C1 (stereo unspecified)
Reply: active

Further cases:
Ask: What is the recorded call for this molecule in the test? Cc1ccccc1NC(=O)/C(=N/NC(=O)CC#N)C1C(=O)N(c2ccccc2)N=C1N (stereo unspecified)
Reply: inactive
